All figures here come from ChEMBL document CHEMBL4346654.

System: Haemophilus influenzae
test description: Antibacterial activity against azithromycin-susceptible Haemophilus influenzae ATCC 49247 assessed as reduction in microbial growth by CLSI based two-fold broth dilution method
Format: functional
measurement type: MIC (µg/mL)
Numbers only, in µg/mL.

Guide cases for MIC, answers given:
line notation | measurement type | output unit | value
CC[C@H]1OC(=O)[C@@](C)(F)C(=O)[C@H](C)[C@@H](O[C@@H]2O[C@H](C)C[C@H](N(C)C)[C@H]2O)[C@](C)(OC)C[C@@H](C)/C(=N\OCC#Cc2ccc3c(c2)c(=O)c(C(=O)NC)cn3CC)[C@H](C)[C@H]2OC(=O)O[C@@]21C | MIC | µg/mL | 32
CC[C@H]1OC(=O)[C@@](C)(F)C(=O)[C@H](C)[C@@H](O[C@@H]2O[C@H](C)C[C@H](N(C)C)[C@H]2O)[C@](C)(OC/C=C/c2ccc3[nH]cc(C(=O)O)c(=O)c3c2)C[C@@H](C)/C(=N\OC)[C@H](C)[C@H]2OC(=O)O[C@@]21C | MIC | µg/mL | 8
CC[C@H]1OC(=O)[C@@](C)(F)C(=O)[C@H](C)[C@@H](O[C@@H]2O[C@H](C)C[C@H](N(C)C)[C@H]2O)[C@](C)(OC)C[C@@H](C)/C(=N\OC/C=C/c2cncc(C(N)=O)c2)[C@H](C)[C@H]2OC(=O)O[C@@]21C | MIC | µg/mL | 8
CC[C@H]1OC(=O)[C@@](C)(F)C(=O)[C@H](C)[C@@H](O[C@@H]2O[C@H](C)C[C@H](N(C)C)[C@H]2O)[C@](C)(OC)C[C@@H](C)/C(=N\OC/C=C/c2cnc3ccccc3c2N)[C@H](C)[C@H]2OC(=O)O[C@@]21C | MIC | µg/mL | 16

Kindly consider the entry below.
Can you share its MIC? I mean this compound: "CC[C@H]1OC(=O)[C@@](C)(F)C(=O)[C@H](C)[C@@H](O[C@@H]2O[C@H](C)C[C@H](N(C)C)[C@H]2O)[C@](C)(OC)C[C@@H](C)/C(=N\OCC#Cc2cncc(NC(C)=O)c2)[C@H](C)[C@H]2OC(=O)O[C@@]21C"
8

----------
Tested on: Streptococcus pneumoniae
test description: Bactericidal activity against erythromycin-susceptible Streptococcus pneumoniae ATCC49619 pretreated followed by subculture in absence of compound measured after 24 hrs
Format: functional
measurement type: MBC (µg/mL)
One number for each entry, in µg/mL.

In the examples that follow, each entry is paired with its recorded MBC.
line notation | value
CC[C@H]1OC(=O)[C@@](C)(F)C(=O)[C@H](C)[C@@H](O[C@@H]2O[C@H](C)C[C@H](N(C)C)[C@H]2O)[C@](C)(OC)C[C@@H](C)/C(=N\OCC#Cc2cncc(C(N)=O)c2)[C@H](C)[C@H]2OC(=O)O[C@@]21C | 1
CC[C@H]1OC(=O)[C@@](C)(F)C(=O)[C@H](C)[C@@H](O[C@@H]2O[C@H](C)C[C@H](N(C)C)[C@H]2O)[C@](C)(OC)C[C@@H](C)/C(=N\OCCCc2ccc3c(c2)c(=O)c(C(=O)O)cn3C2CC2)[C@H](C)[C@H]2OC(=O)O[C@@]21C | 0.25
CC[C@H]1OC(=O)[C@@](C)(F)C(=O)[C@H](C)[C@@H](O[C@@H]2O[C@H](C)C[C@H](N(C)C)[C@H]2O)[C@](C)(OC)C[C@@H](C)/C(=N\OC/C=C/c2cncc(N)c2)[C@H](C)[C@H]2OC(=O)O[C@@]21C | 0.125
CC[C@H]1OC(=O)[C@@](C)(F)C(=O)[C@H](C)[C@@H](O[C@@H]2O[C@H](C)C[C@H](N(C)C)[C@H]2O)[C@](C)(OC)C[C@@H](C)/C(=N\OCC#Cc2cncc(C(=O)NC)c2)[C@H](C)[C@H]2OC(=O)O[C@@]21C | 0.25

List MBC for every entry below, keeping the order given.
1. CC[C@H]1OC(=O)[C@@](C)(F)C(=O)[C@H](C)[C@@H](O[C@@H]2O[C@H](C)C[C@H](N(C)C)[C@H]2O)[C@](C)(OC)C[C@@H](C)/C(=N\OCC#Cc2cncc3ccccc23)[C@H](C)[C@H]2OC(=O)O[C@@]21C
2. CC[C@H]1OC(=O)[C@@](C)(F)C(=O)[C@H](C)[C@@H](O[C@@H]2O[C@H](C)C[C@H](N(C)C)[C@H]2O)[C@](C)(OC)C[C@@H](C)/C(=N\OCC#Cc2cncc(NC(C)=O)c2)[C@H](C)[C@H]2OC(=O)O[C@@]21C
3. CC[C@H]1OC(=O)[C@H](C)[C@@H](O[C@H]2C[C@@](C)(OC)[C@@H](O)[C@H](C)O2)[C@H](C)[C@@H](O[C@@H]2O[C@H](C)C[C@H](N(C)C)[C@H]2O)[C@](C)(OC)C[C@@H](C)C(=O)[C@H](C)[C@@H](O)[C@]1(C)O
4. O=C(O)c1cn(C2CC2)c2cc(N3CCNCC3)c(F)cc2c1=O
5. CC[C@H]1OC(=O)[C@@](C)(F)C(=O)[C@H](C)[C@@H](O[C@@H]2O[C@H](C)C[C@H](N(C)C)[C@H]2O)[C@](C)(OC)C[C@@H](C)/C(=N\OC/C=C/c2ccc3[nH]ccc(=O)c3c2)[C@H](C)[C@H]2OC(=O)O[C@@]21C

1. 4
2. 0.25
3. 0.25
4. 2
5. 0.5

Please state, for each entry, its recorded MBC.
1. CC[C@H]1OC(=O)[C@@](C)(F)C(=O)[C@H](C)[C@@H](O[C@@H]2O[C@H](C)C[C@H](N(C)C)[C@H]2O)[C@](C)(OC/C=C/c2ccc3ncc(C(=O)O)cc3c2)C[C@@H](C)/C(=N\OC)[C@H](C)[C@H]2OC(=O)O[C@@]21C
2. CC[C@H]1OC(=O)[C@@](C)(F)C(=O)[C@H](C)[C@@H](O[C@@H]2O[C@H](C)C[C@H](N(C)C)[C@H]2O)[C@](C)(OC/C=C/c2cncc(C(=O)O)c2)C[C@@H](C)/C(=N\OC)[C@H](C)[C@H]2OC(=O)O[C@@]21C

0.062
0.5
